assayed-target: IL-17A (agonist in the IL-17RA/IL17RC dimerization assay) (UniProt Q16552 24-155)
Sequence (Q16552 24-155 limits assumed): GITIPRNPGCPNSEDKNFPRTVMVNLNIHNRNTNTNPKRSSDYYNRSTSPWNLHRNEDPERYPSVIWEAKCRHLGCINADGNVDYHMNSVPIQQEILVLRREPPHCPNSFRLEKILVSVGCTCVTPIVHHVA
assay-details: cell-based or functional assay
Here, each record is paired with measured IC50 in IL-17RA/IL7RC dimerization assay data.

Ac-IHVTIVADLWDWINK-NH2 [peptide of SEQ ID NO: 189] | < 10 µM

Please look at this binder and report its IC50 in IL-17RA/IL7RC dimerization assay: Ac-IHVTIPADLWDWENK-NH2 [peptide of SEQ ID NO: 212]
< 10 µM

Please look at this binder and report its IC50 in IL-17RA/IL7RC dimerization assay: Ac-IHVTIPNDLWDWINK-NH2 [peptide of SEQ ID NO: 197]
< 10 µM

Please look at this binder and report its IC50 in IL-17RA/IL7RC dimerization assay: Ac-IHATIPADLWDWINK-NH2 [peptide of SEQ ID NO: 167]
< 10 µM

Please look at this binder and report its IC50 in IL-17RA/IL7RC dimerization assay: Ac-VHVQIPADLWEWVRR-NH2 [peptide of SEQ ID NO: 113]
< 0.5 µM

Please look at this binder and report its IC50 in IL-17RA/IL7RC dimerization assay: Ac-IHVTIPADLHDWINK-NH2 [peptide of SEQ ID NO: 206]
< 10 µM

Please look at this binder and report its IC50 in IL-17RA/IL7RC dimerization assay: Ac-IHWTIPADLWDWINK-NH2 [peptide of SEQ ID NO: 173]
< 10 µM

Please look at this binder and report its IC50 in IL-17RA/IL7RC dimerization assay: Ac-IHVYIPADLWDWINK-NH2 [peptide of SEQ ID NO: 176]
< 10 µM

Please look at this binder and report its IC50 in IL-17RA/IL7RC dimerization assay: Ac-IHVTIPVDLWDWINK-NH2 [peptide of SEQ ID NO: 195]
< 10 µM

Please look at this binder and report its IC50 in IL-17RA/IL7RC dimerization assay: Ac-RRRRRRRRVMVTIPADLYEWIEE-NH2 [peptide of SEQ ID NO: 29]
< 1 µM

Please look at this binder and report its IC50 in IL-17RA/IL7RC dimerization assay: Ac-LRIYVPADLWDWINK-NH2 [peptide of SEQ ID NO: 241]
< 10 µM

The reported measurements were obtained from patent US20220112244A1.
